# credit: the supplement of paper PMC10266784

B1: library; numbered along this chain (parent)
chain: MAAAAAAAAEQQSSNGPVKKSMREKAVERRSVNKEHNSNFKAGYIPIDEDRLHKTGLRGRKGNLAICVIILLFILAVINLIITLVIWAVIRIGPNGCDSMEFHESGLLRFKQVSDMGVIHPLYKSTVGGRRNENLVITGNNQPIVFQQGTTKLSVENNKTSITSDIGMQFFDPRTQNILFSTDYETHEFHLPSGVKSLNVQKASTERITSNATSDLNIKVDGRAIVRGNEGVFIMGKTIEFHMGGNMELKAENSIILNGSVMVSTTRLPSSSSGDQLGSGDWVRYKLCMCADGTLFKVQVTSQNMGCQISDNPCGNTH

Variants of: B1
Assay: SGCB cell-surface expression functional score (HA stain, bin4 vs bin1, normalised to synonymous) (log10 ratio); higher = more cell-surface SGCB (functional)
measurement type: SGCB cell-surface expression functional score (log10)
Give bare numbers.

For orientation, consider the following solved cases.
>  <variant annotation>
N304W

>  <reported>
0.2

$$$$
>  <variant annotation>
K19T

>  <reported>
-0.07

$$$$
>  <variant annotation>
F171R

>  <reported>
0.04

$$$$
>  <variant annotation>
A9K

>  <reported>
0.19

$$$$
>  <variant annotation>
A203C

>  <reported>
0.38

$$$$
>  <variant annotation>
L108W

>  <reported>
-0.215

$$$$
>  <variant annotation>
T182H

>  <reported>
-1.44

$$$$
>  <variant annotation>
I70V

>  <reported>
0.53

$$$$

Field: SGCB cell-surface expression functional score (log10). Fill in for each record below.
1. Q169A
2. A5E
3. K152W
4. G278E
5. R23D

1: -1.13; 2: -0.03; 3: 0.3; 4: 0.27; 5: -0.13

Field: SGCB cell-surface expression functional score (log10). Fill in for each record below.
1. T126W
2. P313T
3. I92G
4. V300P
5. S31G
6. T138C
7. R131P
8. S279G

1. 0.62
2. 0.06
3. -0.75
4. -0.35
5. 0.19
6. -0.1
7. -0.13
8. -0.07

Field: SGCB cell-surface expression functional score (log10). Fill in for each record below.
1. V127Y
2. V32T
3. I92S
4. L249C
5. T294Y

1. -1.55
2. -0.08
3. -2.23
4. 0.2
5. -0.33

Field: SGCB cell-surface expression functional score (log10). Fill in for each record below.
1. F102T
2. V298Q
3. I218N
4. T294S

[-1.16, -1.06, -1.03, 0.17]

Field: SGCB cell-surface expression functional score (log10). Fill in for each record below.
1. N141M
2. I234C
3. F146N

[0.71, 0.01, -1.08]

Field: SGCB cell-surface expression functional score (log10). Fill in for each record below.
1. N253S
2. L135G
3. I137L
4. G259R
5. N211M
6. K250A
7. V283C
8. G62W

0.59
-1.2
-0.12
-0.34
0.07
0.91
0.36
-0.11

Field: SGCB cell-surface expression functional score (log10). Fill in for each record below.
1. L52R
2. K286N
3. G149L
4. N246H
5. I78Y

[0.05, -0.03, -0.34, 0.84, -0.68]
